Tested on: mice
Experiment: Biological Example 5: acute toxicity experiment of single oral administration in mice
Assay type: in vivo
Conditions: Female mice; Day 4; single oral 1000 mg/Kg; Mean ± SD
Below is a list of entries, each paired with its recorded Daily Body Weight value.
Hi! Could you send only the number? It should be in g, unit omitted.

The cases that follow already have their Daily Body Weight on record.
{"columns": ["molecule", "target", "unitAbbreviation", "Daily Body Weight"],
 "data": [
  ["COCCN1C(=O)CCC(N2C(=O)c3ccc(O)c(N)c3C2=O)C1=O (stereo not drawn) [Example 8]", "mice", "g", 24.3],
  ["CNc1cccc2c1C(=O)N(C1CCC(=O)N(CCOC)C1=O)C2=O (stereo not drawn) [Example 2]", "mice", "g", 23.2]
]}

Query Nc1cccc2c1C(=O)N(C1CCC(=O)N(CCO)C1=O)C2=O (stereo not drawn) [Example 6] yields Daily Body Weight of 22.0
